# maps each entry to its normalised response
- Tested on: MDA-MB-436
- PROCEDURE DETAILS: normalised response (% of control), CellTiter-Glo; higher = more viable cells (100 = DMSO, 0 = benzethonium chloride kill control)
- TEST CONDITIONS: incubation time: 72 h
Write the answer as a number in %, unit excluded.

Below: 3 compounds and their reported normalised response.
{"COMPOUND": "O=C(/C=C/c1cccc(S(=O)(=O)Nc2ccccc2)c1)NO [Belinostat] (100 nM)", "normalised response / %": 83.6}
{"COMPOUND": "O=C(Nc1cccnc1)N1CCC(Cc2cccc(Oc3ccc(C(F)(F)F)cn3)c2)CC1 [PF-3845] (100 nM)", "normalised response / %": 103}
{"COMPOUND": "CNC(=O)c1cccc(-c2ccc3c(N4CCOC[C@@H]4C)nc(N4CCOC[C@@H]4C)nc3n2)c1 [AZD2014] (100 nM)", "normalised response / %": 82}

Attention now shifts to the item below.
normalised response for N#Cc1ccc(COC[C@H]2O[C@@H](n3c(NCc4ccc(Cl)c(Cl)c4)nc4c(N)ncnc43)[C@H](O)[C@@H]2O)cc1 (100 nM) is 110

Data credit: the supplement of paper PMC4862054
